Molecular target: Progesterone receptor (Homo sapiens) (UniProt P06401)
Sequence (P06401 whole entry): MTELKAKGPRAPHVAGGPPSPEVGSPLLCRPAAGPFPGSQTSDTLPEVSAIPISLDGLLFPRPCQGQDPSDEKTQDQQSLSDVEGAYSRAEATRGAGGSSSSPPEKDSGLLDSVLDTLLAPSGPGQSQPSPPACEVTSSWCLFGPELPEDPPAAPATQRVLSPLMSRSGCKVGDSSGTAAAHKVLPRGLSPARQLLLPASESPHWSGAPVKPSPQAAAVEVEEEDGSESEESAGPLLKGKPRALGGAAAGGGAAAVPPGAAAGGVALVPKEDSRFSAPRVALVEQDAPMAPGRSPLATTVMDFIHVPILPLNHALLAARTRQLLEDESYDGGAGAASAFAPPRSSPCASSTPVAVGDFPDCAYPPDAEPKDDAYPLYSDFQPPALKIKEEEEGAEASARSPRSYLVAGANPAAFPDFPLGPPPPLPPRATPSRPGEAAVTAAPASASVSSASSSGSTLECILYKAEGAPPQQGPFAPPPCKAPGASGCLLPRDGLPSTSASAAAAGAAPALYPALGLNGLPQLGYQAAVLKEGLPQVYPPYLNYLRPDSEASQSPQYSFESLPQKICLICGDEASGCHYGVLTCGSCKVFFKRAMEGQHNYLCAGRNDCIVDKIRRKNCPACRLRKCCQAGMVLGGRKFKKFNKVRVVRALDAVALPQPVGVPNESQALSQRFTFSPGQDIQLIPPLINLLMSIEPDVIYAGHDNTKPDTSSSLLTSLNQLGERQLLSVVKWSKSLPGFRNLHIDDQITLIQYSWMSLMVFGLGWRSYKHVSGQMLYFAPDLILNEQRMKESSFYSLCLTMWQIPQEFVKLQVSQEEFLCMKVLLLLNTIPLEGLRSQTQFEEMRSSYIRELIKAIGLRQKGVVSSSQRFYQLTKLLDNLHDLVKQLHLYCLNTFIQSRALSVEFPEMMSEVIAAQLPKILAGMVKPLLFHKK
Assay: Agonistic activity by cotransfection assay against human Progesterone receptor in T47D cells
Type: functional, cell-based
PROPERTY LABEL: Efficacy (%)

C[C@@H]1C(=O)C(C)(C)Nc2ccc3c(c21)[C@H](c1ccccc1)Oc1ccccc1-3 92
C[C@H]1C(=O)C(C)(C)Nc2ccc3c(c21)[C@H](c1ccccc1)Oc1ccccc1-3 102
C[C@H]1C(=O)C(C)(C)Nc2ccc3c(c21)[C@H](c1ccc(Cl)cc1)Oc1ccccc1-3 107

Data provenance: ChEMBL document CHEMBL1132711
